# Test Target: T1, human TNFR2 extracellular domain with C-terminal 10×His tag (human, UniProt P20333 23-257)
# T1 construct: also called huTNFR2-His; His-tag-huTNFR2
# T1 sequence: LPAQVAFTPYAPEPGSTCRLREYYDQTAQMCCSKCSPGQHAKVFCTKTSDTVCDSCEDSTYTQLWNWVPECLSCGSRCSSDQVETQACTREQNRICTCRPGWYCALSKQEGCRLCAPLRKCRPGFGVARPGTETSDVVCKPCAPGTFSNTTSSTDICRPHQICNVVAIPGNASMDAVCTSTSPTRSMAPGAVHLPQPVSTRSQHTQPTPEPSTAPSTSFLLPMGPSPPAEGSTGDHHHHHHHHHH
# Assay Text: BLI (Octet RED96), antibody captured on AHC biosensor, His-tagged TNFR2 in solution, 1:1 model
Parameter: Kd

Past entries and their recorded results:
[[record]]
binder = "15H10 chimeric anti-TNFR2 antibody (antibody, V domains shown, Chimeric: mouse variable domains with human constant regions, made as recombinant IgG1) VH: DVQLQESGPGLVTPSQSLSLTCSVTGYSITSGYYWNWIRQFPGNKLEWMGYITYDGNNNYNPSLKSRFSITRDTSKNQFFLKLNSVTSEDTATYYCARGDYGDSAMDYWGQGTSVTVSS VL: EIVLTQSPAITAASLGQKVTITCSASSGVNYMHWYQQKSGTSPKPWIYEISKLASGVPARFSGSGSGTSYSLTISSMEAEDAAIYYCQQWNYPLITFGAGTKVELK"
parameter = "Kd"
reported_measurement = "0.453 nM"

[[record]]
binder = "6F12 chimeric anti-TNFR2 antibody (antibody, V domains shown, Chimeric: mouse variable domains with human constant regions, made as recombinant IgG1) VH: QIQLVQSGPELKKPGETVKISCKTSGYTFTIYGMNWVKQAPGKGLKWMGWIHTYTGEPTYADDFKGRFVFSLETSDSTAYLQINNLKSEDMATYFCVRRERYGSFWGQGTLVTVSA VL: DIVLTQSPASLAVSLGQRATISCTASQSVDYGGVSYMNWYQQKPGQPPKLLIYGASNQESGIPVRFSGSGSGTDFTLNIHPVEEEDAATYYCQQSNEDPPTFGAGTKLELK"
parameter = "Kd"
reported_measurement = "3.77 nM"


# evaluate next
Record summary for 102E4 chimeric anti-TNFR2 antibody (antibody, V domains shown, Chimeric: mouse variable domains with human constant regions, made as recombinant IgG1) VH: EVLLQQSGAELVRPGASVKLSCTASGFNIKDDFIHWVQQRPEQGLEWIGRINPSNANTEYAPKFQDKATITTDTSSNTAYLQLSSLTSEDTAVYYCTRNDGYYDGLFYWGQGTTLTVSS VL: DIVMTQSHKFMSSSVGDRVSITCKASQDVGTAVAWYQQKPGQSPKLLIYWASTRHTGVPDRFTGSGSGTDFTLTISNVQSEDLADYFCQQYSSYPFTFGSGTKLEIK : reported Kd = 1.59 nM
